Recorded values, source the supplement of paper PMC10219994.

B1: library; a variant is named by its letters at N, in order (parent)
chain: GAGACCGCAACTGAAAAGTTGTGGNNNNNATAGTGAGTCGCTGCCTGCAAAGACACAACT

variants of: B1; assay: ligation selection enrichment (abundance after / before one-round selection) (fold); higher = more template-directed ligation activity; conditions: with T7Psub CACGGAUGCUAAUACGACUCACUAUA; MgCl2 25 mM; 42 °C; 4 h; pH 8.5
Kindly note that classification relies on ligation selection enrichment with these boundaries: bin A (below 0.2), bin B (0.2 to below 0.4), bin C (0.4 or more)

mutation_notation	qualitative_label
CTGCC	bin A
GGAAT	bin C
TTCTA	bin A
TTCAT	bin C
AGTTG	bin C
CGTAA	bin B
TAGGA	bin C
AGCGT	bin A
CGGCA	bin A
CGTTC	bin A
CGCCG	bin C
AATAT	bin B
CGCAT	bin C
CAAGT	bin A
ATTCG	bin C
AACTC	bin A
CGAGC	bin B
TGACT	bin C
CATGC	bin A
GCATT	bin B
TTGTC	bin B
